- Target System: T1, TIGIT (SPR analyte) (human, UniProt Q495A1 22-141, limits assumed)
- T1 construct: the text says only 'TIGIT was used as the analyte'; The construct is not described; also called human TIGIT
- T1 sequence (looked up): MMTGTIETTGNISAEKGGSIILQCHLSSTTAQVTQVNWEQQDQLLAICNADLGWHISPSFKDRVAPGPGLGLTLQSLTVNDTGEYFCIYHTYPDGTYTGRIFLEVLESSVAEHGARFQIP
- Protocol Summary: SPR (Biacore 8K), antibody captured through Fc, TIGIT as analyte
Each record here notes measured kon.
Recorded Metric: kon (M⁻¹ s⁻¹)

VH3 + VL3 (antibody, human IgG1, kappa, V domains shown, Humanized full-length IgG; also called HC2 + LC2) VH: QVQLVQSGAEVKKPGASVKVSCKASGYTFSRYWIEWVRQAPGQGLEWMGEIFPGSGGTNYNEKFKGRVTMTRDTSTSTVYMELSSLRSEDTAVYYCARHLGALDYWGQGTLVTVSS VL: EIVLTQSPGTLSLSPGERATLSCSASSSVSYIHWYQQKPGQAPRLLIYRTSNLASGIPDRFSGSGSGTDFTLTISRLEPEDFAVYYCQQYHSNPWTFGGGTKLEIKR | 294000
VH3 + VL4 (antibody, human IgG1, kappa, V domains shown, Humanized full-length IgG; also called HC2 + LC3) VH: QVQLVQSGAEVKKPGASVKVSCKASGYTFSRYWIEWVRQAPGQGLEWMGEIFPGSGGTNYNEKFKGRVTMTRDTSTSTVYMELSSLRSEDTAVYYCARHLGALDYWGQGTLVTVSS VL: DIVMTQSPDSLAVSLGERATINCSASSSVSYIHWYQQKPGQPPKLLIYRTSNLASGVPDRFSGSGSGTDFTLTISSLQAEDVAVYYCQQYHSNPWTFGGGTKLEIKR | 396000
VH4 + VL2 (antibody, human IgG1, kappa, V domains shown, Humanized full-length IgG; also called HC3 + LC1) VH: EVQLVQSGAEVKKPGESLKISCKGSGYTFSRYWIEWVRQMPGKGLEWMGEIFPGSGGTNYNEKFKGQVTISADKSISTAYLQWSSLKASDTAMYYCARHLGALDYWGQGTLVTVSS VL: DIQMTQSPSSLSASVGDRVTITCSASSSVSYIHWYQQKPGKAPKLLIYRTSNLASGVPSRFSGSGSGTDFTLTISSLQPEDFATYYCQQYHSNPWTFGGGTKLEIKR | 407000
